# Target System: T1, EsCas13d, nuclease-dead (Eubacterium siraeum, UniProt B0MS50, R295A;H300A;R849A;H854A)
# T1 sequence: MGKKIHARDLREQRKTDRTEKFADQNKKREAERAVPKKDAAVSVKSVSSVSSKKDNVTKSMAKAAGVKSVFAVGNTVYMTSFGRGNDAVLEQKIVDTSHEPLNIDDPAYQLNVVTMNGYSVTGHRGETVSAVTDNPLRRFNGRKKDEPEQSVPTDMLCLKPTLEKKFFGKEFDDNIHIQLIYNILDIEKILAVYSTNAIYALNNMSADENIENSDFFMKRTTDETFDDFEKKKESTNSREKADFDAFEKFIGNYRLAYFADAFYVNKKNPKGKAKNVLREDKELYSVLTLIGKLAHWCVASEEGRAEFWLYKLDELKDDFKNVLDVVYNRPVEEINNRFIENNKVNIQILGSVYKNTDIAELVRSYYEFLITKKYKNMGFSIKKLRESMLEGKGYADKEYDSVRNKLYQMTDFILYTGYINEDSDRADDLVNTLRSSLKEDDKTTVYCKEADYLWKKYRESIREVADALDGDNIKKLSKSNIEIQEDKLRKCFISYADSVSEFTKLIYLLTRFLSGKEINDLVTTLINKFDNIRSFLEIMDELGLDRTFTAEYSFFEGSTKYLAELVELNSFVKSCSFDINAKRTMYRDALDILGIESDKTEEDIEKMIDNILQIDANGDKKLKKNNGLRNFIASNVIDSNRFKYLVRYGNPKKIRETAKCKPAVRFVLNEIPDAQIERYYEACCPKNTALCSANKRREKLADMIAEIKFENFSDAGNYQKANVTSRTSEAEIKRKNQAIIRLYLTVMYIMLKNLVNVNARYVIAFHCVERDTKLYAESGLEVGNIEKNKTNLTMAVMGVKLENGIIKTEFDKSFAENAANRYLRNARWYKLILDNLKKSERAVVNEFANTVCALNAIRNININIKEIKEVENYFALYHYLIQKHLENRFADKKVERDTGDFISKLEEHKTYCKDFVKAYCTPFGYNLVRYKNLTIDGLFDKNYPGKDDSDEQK
# Test Details: crRNA (strand 1, pre-loaded); Mg2+; 40 mM Tris-HCl pH 7.5, 150 mM NaCl, 6 mM MgCl2, 1 mM DTT, 0.1% Tween-20, 0.2 mg/ml BSA; 25 C; 10 min per concentration, then washed
# Assay Setup: tags: His6-TwinStrep-SUMO cleaved; N-terminal SNAP kept (SNAP-Surface 488); label: 3' end held by stalled T7 RNA polymerase
pKd: −log10 of the molar value.
We use 8 as the dividing line for pKd: on or above the line is TRUE, below is FALSE.

Below, 2 binders whose answers are already recorded.
target 3 U2C,U7A (mixed) RNA 1: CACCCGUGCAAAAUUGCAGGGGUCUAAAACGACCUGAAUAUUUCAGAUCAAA RNA 2: GGGAAUGGAUCCACAUCUACGAAUUCGUUUUUGAUCUGAAAUAUACAGGCCUGCAGAUCGGAAGAGCACACGU | FALSE
target 1 insU 3' of 15,insC 3' of 14 (mixed) RNA 1: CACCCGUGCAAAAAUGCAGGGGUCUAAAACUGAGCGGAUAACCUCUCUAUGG RNA 2: GGGAAUGGAUCCACAUCUACGAAUUCGUACCAUAGAGUACGGUUAUCCGCUCACCGAGAUCGGAAGAGCACACGU | FALSE

Form field: pKd at least 8? Entry: target 2 MT 5'PFS CUC 3'PFS UAG (mixed) RNA 1: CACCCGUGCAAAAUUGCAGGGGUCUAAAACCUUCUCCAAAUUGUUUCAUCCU RNA 2: GGGAAUGGAUCCACAUCUACGAAUUCCUCAGGAUGAAACAAUUUGGAGAAGUAGAGAUCGGAAGAGCACACGU
TRUE
